Target: T1, AAV9 (adeno-associated virus 9)
T1 construct: also called adeno-associated virus serotype 9
Assay: SPR, AAV amine-coupled to CM5 chip;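 note: nanobodies flowed as analyte at seven concentrations spanning 1–100 nM over immobilized AAV (500–800 RU), kinetic constants derived by fitting the binding curves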
Please enter label 1 where koff is greater than or equal to 0.0004 s⁻¹, and label 0 where it is lower.

{"columns": ["Binder", "Category"],
 "data": [
  ["A4-091 (VHH) VHH: VQLQESGGGLVQPGGSLRLSCAASGSRFSINTMGWYRQRAGKQRELVATVTRDGSTTYANSVKGRFTISRDNAKNTVYLQMNSLRPEDTAVYYCHVDELRQSTWTTSNLWGQGTQVTVSS", "label 0"],
  ["A4-062 (VHH) VHH: VQLQESGGGLVQAGGSLRLSCAASGSSFSINAMGWYRQAPGKQRELVATVTRGGTTNYADSVKGRFTISRDNPKNTVYLQMNSLRPEDTAVYYCHLDEVRESSWTTSNLWGQGTQVTVSS", "label 0"],
  ["A4-087 (VHH) VHH: VQLQESGGGLVQPGGSLRLSCAASGSRFSLNTMGWYRQAPGKQRELVAAVTRGGNTNYGDFVKGRFTISRDNAKNTVYLQMNSLRPEDTAVYYCHVDELRESSWTTSNLWGQGTQVTVSS", "label 0"],
  ["A4-069 (VHH) VHH: VQLQESGGGLVQPGGSLRLSCAASGSIFTINSMGWYRQAPGKWRELVATVTRGGNTNYANSVKGRFTISRDNAKNTVYLQMNTLRPEDTAVYYCHLDEVRDSSWTTSNLWGQGTQVTVSS", "label 1"],
  ["A4-077 (VHH) VHH: VQLQESGGGLVQPGGSLRLSCAASGSMFSINIMGWYRQAPGKQREFVATITRGGSTNYADFVKGRFTISRDNAKNTVYLQMNSLRPEDTAVYYCHVDELRDSSWTTSNLWGQGTQVTVSS", "label 0"],
  ["A4-073 (VHH) VHH: VQLQESGGGLVQPGGSLRLSCAASGSNFSINTMGWYRQAPGKQREMVATVTRGGSTNYGDFVKGRFTISRDNAKNTVYLQMNSLRPEDTAVYYCHVDEIRQSSWTTSNIWGQGTQVTVSS", "label 1"],
  ["A4-059 (VHH) VHH: VQLQESGGGAVQPGGSLRLSCAASGSHFSLNTMGWYRRAPGKQRELVATVTRGGSTNYADSVKGRFTISRDNAKNTIYLQMNSLRPEDTAVYYCHVDEVRQSTWTTSNLWGQGTQVTVSS", "label 0"],
  ["A4-093 (VHH) VHH: VQLQESGGGLVQTGGSLRLSCAASGSIFIINTMGWYRQRAGKQRELVATVTRGGSTNYADSVKGRFTISRDNAKNTVYLQMNTLRPEDTAVYYCHVDELRQSSWTTSNLWGQGTQVTVSS", "label 1"]
]}
